biological target: Hexose transporter 1 (Plasmodium falciparum) (UniProt O97467); test: ST_JUDE_LEISH: Cytotoxicity at 2uM final concentration against transgenic Leishmania Mexicana promastigotes LmPfHT that are glucose transport deficient and complemented with the Plasmodium falciparum hexose transporter. Activity is measured by DNA content using SYBR green in vitro; assay type: functional
The reader will find reported inhibition values listed item by item below.
Parameter measured: inhibition (%)

>>> numeric_readout("CCCCNc1cc(C)nc(NCc2ccccc2)n1")
16.4
>>> numeric_readout("Cc1ccc2nc(-c3ccc(/C=C/C(=O)NC4CCN(Cc5ccccc5)CC4)cc3)[nH]c2c1C")
8.63
>>> numeric_readout("C=CCOC1OC(COC(c2ccccc2)(c2ccccc2)c2ccccc2)C(OC(C)=O)C(OC(C)=O)C1NC(C)=O (stereo not given)")
1.07
>>> numeric_readout("Oc1ccc2c(c1CNC1CCCCC1)CCCC2")
3.89
>>> numeric_readout("Cn1nccc1C(=O)NCCNCc1ccc(-c2cccc(-c3nc4cc(F)ccc4[nH]3)c2)cc1")
-4.29
>>> numeric_readout("Nc1nc(N)c2c(ccc3c2ccn3Cc2ccccc2)n1")
94
>>> numeric_readout("CCn1c(-c2nonc2N)nc2c(-c3cccc(NC(=O)Nc4ccc5c(c4)CCC5)c3)ncc(OCCCN)c21")
3.19
>>> numeric_readout("COc1ccccc1C1CC(c2ccc(C)cc2)=NN1C(=O)c1ccccc1 (stereo not given)")
8.06
>>> numeric_readout("COc1cc(CNCCCCCCNCc2cc(OC)c(OC)c3ccccc23)c2ccccc2c1OC")
4.27
>>> numeric_readout("Cc1cccc2nc(-c3cccc(-c4cccc(NC(=O)CN5CCN(C)CC5)c4)c3)[nH]c12")
7.52
>>> numeric_readout("Cc1ccc2c(c1[N+](=O)[O-])N=NCC2Oc1ccccc1 (stereo not given)")
9.1
>>> numeric_readout("CCCc1cc(Cc2cnc(N)nc2N)ccc1OCCCCCC(=O)OCC")
-1.27
>>> numeric_readout("CC(C)c1ccc(CN2CCCCC(NC(=O)c3cc(-c4ccccc4F)cs3)C2)cc1 (stereo not given)")
8.1
>>> numeric_readout("CS(=O)(=O)CCNCc1cc(-c2cc3ncnc(Nc4ccc(OCc5cccc(F)c5)c(Cl)c4)c3s2)cs1")
6.19
>>> numeric_readout("Cc1cc(C(F)(F)F)cc(-n2ncc(-c3ccc(C(=O)NCc4ccccc4N)cc3)c2N)n1")
98.5
>>> numeric_readout("Cn1cc(C2CCN(CCCCNC(=O)c3ccc(-c4ccc(C(F)(F)F)cc4)c(CO)c3)CC2)c2ccccc21")
3.1
>>> numeric_readout("c1ccc(Oc2ccc(Nc3ccnc4cc(-c5ccc(CNCCN6CCOCC6)o5)ccc34)cc2)cc1")
2.86
>>> numeric_readout("COCCOc1cc(C)c(C2CCN(CCCCNC(=O)c3ccc(NC(=O)c4ccc(Cl)cc4)cc3)CC2)cc1C")
7.14
>>> numeric_readout("COc1cc2nc(SCCCC#N)n(C3CCCCCC3)c(=N)c2cc1OC")
5.84
>>> numeric_readout("O=S(=O)(c1ccc2cc[nH]c2c1)N1CCC[C@@H]1CCN1CCC(c2c[nH]c3cnccc23)CC1")
2.78

* * *

biological target: Solute carrier family 2, facilitated glucose transporter member 1 (Homo sapiens) (UniProt P11166); assay: ST_JUDE_LEISH: Cytotoxicity at 2uM final concentration against transgenic Leishmania Mexicana promastigotes LmGLUT1 that are glucose transport deficient and complemented with the human glucose transporter GLUT1. Activity is measured by DNA content using SYBR green in vitro; type: functional
Sequence (P11166 whole entry): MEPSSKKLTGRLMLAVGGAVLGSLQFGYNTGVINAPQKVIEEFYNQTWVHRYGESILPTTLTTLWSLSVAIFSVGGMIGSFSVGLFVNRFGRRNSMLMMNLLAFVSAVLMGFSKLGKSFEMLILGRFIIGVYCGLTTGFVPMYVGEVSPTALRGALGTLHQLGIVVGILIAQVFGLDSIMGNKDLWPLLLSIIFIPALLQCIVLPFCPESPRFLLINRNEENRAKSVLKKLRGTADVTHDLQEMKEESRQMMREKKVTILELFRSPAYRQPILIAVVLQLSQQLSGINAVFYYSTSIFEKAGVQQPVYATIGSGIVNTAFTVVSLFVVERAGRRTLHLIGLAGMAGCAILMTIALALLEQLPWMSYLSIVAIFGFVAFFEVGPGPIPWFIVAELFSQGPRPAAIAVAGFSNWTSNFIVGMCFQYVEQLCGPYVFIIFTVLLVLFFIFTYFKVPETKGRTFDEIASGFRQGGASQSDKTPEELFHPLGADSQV
The reader will find reported inhibition values listed item by item below.
Parameter measured: inhibition (%)

>>> numeric_readout("OC(CNCc1ccccc1OCc1ccccc1)c1cccc(Cl)c1 (stereo not given)")
5.6
>>> numeric_readout("COc1ccc2[nH]ccc(=NN=Cc3ccc(N(C)C)cc3)c2c1")
2.69
>>> numeric_readout("CN1CCN(CC(=O)Nc2ccc(-c3ccc(-c4nc5ccccc5[nH]4)s3)cc2)CC1")
1.26
>>> numeric_readout("O=S(=O)(NC1CCCCN(Cc2ccccc2O)C1)c1ccc(C(F)(F)F)cc1 (stereo not given)")
1.87
>>> numeric_readout("Oc1ccc(CCNc2nc(NCc3ccc4cc(Cl)ccc4c3)nc(N3CCNCC3)n2)cc1")
-0.16
>>> numeric_readout("Cc1cc(-c2ccc(CNCCc3cccs3)cc2)ccc1S(=O)(=O)NCc1ccccc1")
13
>>> numeric_readout("CN1CCN(c2ccc3nccc(CCN4CCC(NCc5ccc6c(n5)NC(=O)CO6)CC4)c3n2)CC1")
-0.03
>>> numeric_readout("c1ccc(C2=NN=C(c3ccccn3)C3C4CC(C23)C2C3CC(c5ccccc53)C42)nc1 (stereo not given)")
5.41
>>> numeric_readout("Oc1c(CN2CCC(Cc3ccccc3)CC2)cc(Cl)c2cccnc12")
13.5
>>> numeric_readout("O=C1COc2ccc(S(=O)(=O)N3CCC[C@@H]3CCN3CCC(c4c[nH]c5cnccc45)CC3)cc2N1")
0.76

* * *

target: Glucose transporter (Leishmania mexicana); assay: ST_JUDE_LEISH: Cytotoxicity at 2uM final concentration against transgenic Leishmania Mexicana promastigotes LmGT2 that are glucose transport deficient and complemented with the L. Mexicana glucose transporter 2. Activity is measured by DNA content using SYBR green in vitro; format: functional
Parameter measured: inhibition (%)

>>> numeric_readout("Cc1c(CNCCCNc2nc3ccccc3[nH]2)sc(C(F)F)c1Br")
1.17
>>> numeric_readout("O=c1cc(NCCC(CNCc2ccc(Br)o2)NCc2cc(Br)cc(Br)c2)[nH]c2ccccc12 (centres undefined)")
6.87
>>> numeric_readout("CCc1sc(-c2cc(Cl)ccc2OC)nc1C(=O)NCCN1CCCCC1")
4.96
>>> numeric_readout("O=C(Nc1ccc(Oc2ccc(OC(F)(F)F)cc2)cc1)c1ccco1")
-0.53
>>> numeric_readout("Fc1ccc2[nH]c(-c3ccc(-c4ccc(CN5CCN(CCN6CCOCC6)CC5)cc4)s3)nc2c1")
1.83
>>> numeric_readout("CC(=O)Nc1ccc(CN2CCC(NC(=O)c3ccc(-c4cccc(C(F)(F)F)c4)s3)CC2)cc1")
-4.9
>>> numeric_readout("Cc1ccc(NS(=O)(=O)c2ccc(-c3ccccc3)cc2)c(Cn2cnc(N3CCCNCC3)cc2=O)c1")
-3.65
>>> numeric_readout("CS(=O)(=O)CCNCc1nc(-c2ccc3ncnc(Nc4ccc(OCc5cccc(F)c5)c(Cl)c4)c3c2)cs1")
-1.62
>>> numeric_readout("Oc1cc(Nc2ccnc3cc(-c4ccc(CN5CCCCC5)o4)ccc23)c(Cl)cc1F")
3.68

* * *

target: Hexose transporter 1 (Plasmodium falciparum); test: ST_JUDE_LEISH: Cytotoxicity at 2uM final concentration against transgenic Leishmania Mexicana promastigotes LmPfHT that are glucose transport deficient and complemented with the Plasmodium falciparum hexose transporter. Activity is measured by DNA content using SYBR green in vitro; format: functional
Parameter measured: inhibition (%)

>>> numeric_readout("Fc1ccc2[nH]c(-c3cccc(-c4cccc(CN5CCN(c6ccncc6)CC5)c4)c3)nc2c1")
1.73
>>> numeric_readout("O=C(Nc1ccc(CN2CCN(S(=O)(=O)c3ccc(Cl)s3)CC2)cc1)c1cccs1")
7.45
>>> numeric_readout("Cc1cnc(Nc2ccccc2)nc1N[C@@H](CCCN)C(=O)Nc1ccccc1")
-0.2
>>> numeric_readout("O=C(Nc1cccc(-c2nn3ccccc3c2-c2ccnc(Nc3cccc(-c4cnco4)c3)n2)c1)C1CCCCC1")
3.39
>>> numeric_readout("COc1ccc(-c2ccc(NC(=O)c3cccc(Cl)c3)cc2)cc1CNC(C)C")
5.52
>>> numeric_readout("O=C(/C=C/c1ccc(Cl)cc1)NCCCCCN1CCCC(C(=O)Nc2ccc(Cl)c(Cl)c2)C1 (centres undefined)")
1.61
>>> numeric_readout("O=C(/C=C/c1ccc(Cl)c(Cl)c1)N1CCC(CNCc2cccc3cc[nH]c23)CC1")
0.75
>>> numeric_readout("COc1ccc(C(=O)N[C@@H](CC(C)C)C(=O)NC2CC[C@@H](C)N(C(=O)Nc3ccc(Cl)cc3)CC2=O)cc1OCCN1CCOCC1 (some centres undefined)")
3.66
>>> numeric_readout("COC(=O)c1c(NC(=O)c2cccc(C(F)(F)F)c2)sc2c1CCN(Cc1ccccc1)C2")
5
>>> numeric_readout("C[C@H](N[C@H]1CCCc2c1[nH]c1ccc(Br)cc21)c1ccccc1")
0.78
>>> numeric_readout("O=C(NC1CCN(Cc2ccccc2)CC1)c1ccc(-c2nc3cc(Cl)c(Cl)cc3[nH]2)s1")
1.08
>>> numeric_readout("Oc1ccc(Cl)cc1-c1cc(C(F)(F)F)nc(-c2ccccc2)n1")
5.96
>>> numeric_readout("O=C(/C=C/c1ccc(Cl)c(Cl)c1)NCCCCCN1CCCN(C(=O)Nc2ccc(Br)cc2)CC1")
10.3
>>> numeric_readout("CC(C)C[C@H](Nc1ccc(C#N)c2ccccc12)C(=O)NC(C)(C)C12CC3CC(CC(C3)C1)C2")
5.78
>>> numeric_readout("CCc1ccc(NC(=O)c2ccc(CN3CCCN(Cc4ccc(C)s4)CC3)cc2)cc1")
5.06
>>> numeric_readout("COc1ccc(C=NNc2ccnc3cc(F)c(C)cc23)c2ccccc12")
8.43
>>> numeric_readout("Cc1nc(N)nc(N)c1Oc1cccc(Cl)c1")
0.81
>>> numeric_readout("COc1ccc(/C=C/C(=O)N2CCc3cc4nccc(N5CCN6CCC[C@H]6C5)c4cc32)cc1")
4.78
>>> numeric_readout("Cc1cc(OCc2ccccc2)c(OCc2ccccc2)cc1C(O)CN(C)Cc1ccccc1 (centres undefined)")
1.08
